# experiment_notes: yeast display, Sf9 membrane polyspecificity reagent, FACS + sequencing; frameworks hold sequencing errors
quantity_kind: polyreactivity (PSR sort gate)

Some entries whose results are on file:
chain_sequence | quantity_kind | reported_value
QVQHVESGGGLVQAGGSLRLSCAASGRIFVPYTMGWYRQAPGKERELVAAISRSGGSTYYADSVKGRFTISRDNAKNPVYLQMNSLKPEDTAVYYCAARATNVYSKMDYWGQGTQVTVSS | polyreactivity (PSR sort gate) | high polyreactivity
QVQLVESGGGLVQAGGSLRLSCAASGFIFGGYAMGWYRQAPGKERELVAAISWSGDNTYYADSVKGRFTISRDNAKNTVYLQMNSLKPEDTAVYYCAADSYGQEYDYWGQGTQVTVSS | polyreactivity (PSR sort gate) | low polyreactivity
QVQLVESGGGLVQAGGSLRLSCAASGSTFVTNAMVWYRQAPGKERELVAAIDYDSGSTYYADSVKGRFTISRDNAKNTVYLQMNSLIPEDTAVYYCNADEQSEEEWEYYYSYDYWGQGTQVTVSS | polyreactivity (PSR sort gate) | high polyreactivity
QVQLVESGGGLVQAGGSLRLSCAASGFTFRYYAMGWYRQAPGKERELVAAITWSGGRTYYADSVKGRFTISRDNAKNTVYLQMNSLKPEDTAVYYCNTPSLWSGEDYWGQGTQVTVSS | polyreactivity (PSR sort gate) | high polyreactivity
QVQLVESGGGLVQAGGSLRLSCAASGSIFRYNAMGWYRQAPGKERELVAAIDWSGGTYYADSVKGRFTISRDNAKNTVYLQMNSLKPEDTAVYYCNARGSKYSSYWGYDYWGQGTQVTVSS | polyreactivity (PSR sort gate) | low polyreactivity

I need polyreactivity (PSR sort gate) for every entry listed below, if you could help.
1. HVHLVESGGGLVQAGGSLSLICAASGFIFRYYAMGWYRQAPGTEREVVAAITRGGSTYYADSVKGRFTISRDNAKNTVYLQMNSLKPVATAVYYCAARLYTQYYYWGQGTQVTVSS
2. QVQLVESGGGLVQAGGSLRLSCAASGSTFSSYAMGWYRQAPGKERELVAAISYSGGSTYYADSVKGRFTISRDNAKNTVYLQMNSLKPEDTAVYYCAAVGTWQHRSYGYWGQGTQVTVSS
3. QVQLVESGGGLVQAGGSLRLSCAASGSTFQTYAMGWYRQAPGKERELVAAISFNGGSTYYADSVKGRFTISRDNAKNTVYLQMNSLKPEDTAVYYCAVEYTWASALYDGRHDYWGQGTQVTVSS
4. QVQLVESGGGLVQAGGSLRLSCAASGLTFDYYVMGWYRQAPGKERELVATISWSGDITYYADSVKGRFTISRDNAKNTVYLQMNSLKPEDTAVYYCAADYLDSTYGYVYGWDDYWGQGTQVTVSS
5. QVQLVESGGGLVQAGGSLRLSCAASGFTFKFYAMGWYRQAPGKERELVAAISGSGDSTYADSVKGRFTISRDNAKNTVYLQINSLKPEDTAVYYFNGRYAGVPWWGYYSRFDYWGQVTQVTVSS

Result:
high polyreactivity
high polyreactivity
high polyreactivity
low polyreactivity
low polyreactivity

I need polyreactivity (PSR sort gate) for every entry listed below, if you could help.
1. QVQLVESGRRLVQAGGSLRLTCAASGRTFVTNAMGWYRQAPGKERELVAAISSKGGSTYYADSVKGRFTISRDNAKNTVYLQMNSLKPEDTAVYDCNAEGQPLYVSWHDHRYIYGFDYWGQGTQVTVSS
2. QVQLEESGGGLVQAGGSLRLSCAASGFILTGNVMGWYRQAPGKEREFVAGISRSGGTYYADSVKGRFTISRDNAKNTVYLQMNSLKPEDTAVYYCAAKPIYYSRGYYWGQGTQVTVSS
3. QVQLVESGGGLVQAGGSLRLSCAASGRTFKYYTMGWYRQAPGKEREFVAAITSSGGRTYYADSVKGRFTISRDNAKNTVYLQMNSLKPEDTAVYYCAASTYRVWLAPATLSRYDYWGQGTQVTVSS
4. QVQLVESGGGLVQAGGSLRLSCAASVLTFSYYALGGSRPAHGTERELVAAITSSGGRTTYADSVKGRFTISRDNAKNTVYLQMNSLKPEDTAVYYCNVVRCTLKYGYWGQGTQVTVSS
5. QVQLVESGGGLVQAGGSLRLSCAASGSIYYGYAMGWYRQAPGKERELVAAISSSGGSTYYADSVKGRFTISRDNAKNTVYLQMNSLKPEDTAVYYCAATRRKAYLYPSDYWGQGTQVTVSS
6. QVQLVESGGGLVQAGGSLRLSCAASGSTFGAYAMGWYRQAPGKEREFVAAISGGGDGTYADSVKGRFTISRDNAKNTVYLQMNSLKPEDTAVYYCAAEDVPYDREDYWGQGTQVTVSS
7. QVQLVESGGGLVQAGGSLRLSCAASGSIFPGYAMGWYRQAPGKERELVAAITFSGGSTYYADSVKGRFTISRDNAKNTVYLLMISLKPEDTAVYYCAAPGWYGGYPSFYYWGQGTQVTVSS

Result:
1. low polyreactivity
2. high polyreactivity
3. high polyreactivity
4. high polyreactivity
5. high polyreactivity
6. low polyreactivity
7. low polyreactivity

I need polyreactivity (PSR sort gate) for every entry listed below, if you could help.
1. QVQLVESGGGLVQAGGSLRLSCAASGSTLYYYAMGWSRQAPGKERELVAAISWSGGITYYADSVKGRFTISRDNAKNTVYLQMNSLKPEDTAVYYCAADKYQGYTFYQGYPGGGGYWGQGTQVTVSS
2. QVQLVESGGGLVQAGGSLRLSCAASGSIFEPYVMGWYRQAPGKERELVAAIRQTGGSTYYADSVKGRFTISRDNAKNTVYLQMNSLKPEDTAVYYCNAEQNPSGLYDYRGVEGEMGYWGQGTQVTVSS
3. QVQLVESGGGLVQAGGSLRLSCAASGSIFVRYAMGWYRQAPGKERELVAAISSGGRTYYADSVKGRFTISRDNAKYTVYLQMNSLKPEDTAVYYCNAVKRVPSLGPYDYWGQGTQVTVSS
4. QVQLVESGGGLVQAGGSLRLSCAASGSTFIFYTLGWYRQAPGKERELVAAITSNGGSTYYADSVKGRFTISRDTAKKTVYLQMNSLKPEDTAVDYCAKKGVGQYDWGQGTQVTVSS

Result:
low polyreactivity
low polyreactivity
high polyreactivity
high polyreactivity
